Study target: T1, Mouse-Fc-tagged SARS-CoV2 S1-RBD (Sino Biologicals) recombinant protein (SARS-CoV-2, UniProt P0DTC2 319-541)
T1 construct: domain: S1-RBD
Experimental details: ELISA on coated S1-RBD-mFc
Parameter measured: EC50 (ng/mL)
Give the value, in units of ng/mL, as a plain number.

[
  {
    "Binder": "P043.A.00097.B02 (antibody, V domains shown) VH: QELVESGGGLVQAGESLKLSCKASGIDFSSYGISWVRQAPGKGLEWIAYIYPGFGITNYANSVKGRFTISSDNAQNTVFLQMTSLTASDTATYFCTRAYASSSGYYIHYFNLWGPGTLVTVSS VL: AIQMTQSPSSLAASVGDTVTITCKASEDIGYGLNWYQQKLGIAPKLLIYGANTLESGVPSRFSGSGSETDYTLTISSVQAEDAGIYYCQQAYSTPLTFGAGTKVEIK",
    "Parameter measured": "EC50",
    "Quantity unit": "ng/mL",
    "Numeric result": 3.4
  },
  {
    "Binder": "P043.A.00092.C12 (antibody, V domains shown, also called 472; protein sample ID 472) VH: QEELKETGGGLVQPGGSLTLSCKASGFDFSSYYMSWVRQAPGKGLEWIGVIYASKGSTDYASWVNGRFTISSDNAQNTVDLQMNSLTAADTATYYCARSKRFYTYGYAGYAYAHYYYGMDLWGPGTLVTVSS VL: AIQMTQSPSSLAASVGDTVTITCKASEDIGYGLNWYQQKLGIAPKLLIYGADTLESGVPSRFSGSGSETDYTLTISSVQAEDAGIYYCQQGYSTPLTFGAGTKVEIK",
    "Parameter measured": "EC50",
    "Quantity unit": "ng/mL",
    "Numeric result": 8.3
  },
  {
    "Binder": "P043.A.00109.B12 (antibody, V domains shown, also called 468; protein sample ID 468) VH: QSLEESGGGLVKPEGSLTLTCKASGFDLNTYYYMCWVRQAPGKGLEWIACIATSDSGHTAYASWARGRFTISKTSSTTVTLQMTGLTAADTATYFCARGGRSVGDGVDLWGPGTLVTVSS VL: DIVMTQTPASVEAAVGGTVTIKCQASQSISSWLAWYQQKPGQPPKLLIYDASDLASGVPSRFKGSGSGTEFTLTISDLESADAATYYCQSYLYVESGSHGFGFGGGTEVVVR",
    "Parameter measured": "EC50",
    "Quantity unit": "ng/mL",
    "Numeric result": 5.6
  },
  {
    "Binder": "P043.A.00023.E05 (antibody, V domains shown, also called 443; protein sample ID 443) VH: QSLEESGGRLVTPGTPLTLTCTVSGFSLSSYAMSWVRQAPGKGLEWIGIISSSGSTYYASWAKGRFTISKTSTTVDLKITSPTTEDTATYFCARDASSRGYYYYYGMDPWGPGTLVTVSS VL: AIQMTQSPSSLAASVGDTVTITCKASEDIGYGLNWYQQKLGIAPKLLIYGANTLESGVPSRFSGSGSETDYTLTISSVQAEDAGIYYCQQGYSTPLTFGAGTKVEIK",
    "Parameter measured": "EC50",
    "Quantity unit": "ng/mL",
    "Numeric result": 11.2
  },
  {
    "Binder": "P043.A.00017.E07 (protein sample ID 449) (antibody, V domains shown) VH: QSVEESGGRLVTPGTPLTLTCTVSGFSLSSYAMSWVRQAPGKGLEWIGIISSSGSTYYASWAKGRFTISKTSTTVDLKITSPTTEDTATYFCARAMYPGYSTGVYNIWGPGTLVTVSL VL: AIQMTQSPSSLAASVGDTVTITCKASEDIGYELNWYQQKLGIAPKLLIYGANTLESGVPSRFSGSGSETDYTLTISSVQAEDAGIYYCQQGYNTPNTFGAGTKVEIK",
    "Parameter measured": "EC50",
    "Quantity unit": "ng/mL",
    "Numeric result": 8.8
  },
  {
    "Binder": "P043.A.00020.D06 (protein sample ID 444) (antibody, V domains shown) VH: QSVEESGGRLVTPGTPLTLTCTVSGFSLSSYAMNWVRQAPGKGLEWIGIISSSGSTYYASWAKGRFTISKTSTTVDLKITSPTTEDTATYFCARVGAGYAGYGYDNYYGMDPWGPGTLVTVSS VL: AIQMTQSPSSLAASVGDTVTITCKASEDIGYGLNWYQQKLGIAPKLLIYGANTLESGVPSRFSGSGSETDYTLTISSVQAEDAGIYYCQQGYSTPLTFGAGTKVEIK",
    "Parameter measured": "EC50",
    "Quantity unit": "ng/mL",
    "Numeric result": 7.3
  }
]

Input: Which value of EC50 has been reported for P043.A.00024.C11 (protein sample ID 451) (antibody, V domains shown) VH: QSVEESGGRLVTPGTPLTLTCTVSGFSLSSYAMSWVRQAPGKGLEWIGIISSSGTTYYASWAKGPFTISKTSTTVDLKITSPTTEDTATYFCARGGAGYGYAHYYGMDPWGPGTLVTVSS VL: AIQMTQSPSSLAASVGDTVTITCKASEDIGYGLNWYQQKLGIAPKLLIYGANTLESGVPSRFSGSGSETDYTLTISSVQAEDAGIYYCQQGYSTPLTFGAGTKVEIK in the records?
Output: 7

Input: Ok, now P043.A.00018.C02 (protein sample ID 450) (antibody, V domains shown) VH: QSVEESGGRLVTPGTPLTLTCTVSGFSLSSYAMSWVRQAPGKGLEWIGIINSGRSTYYASWAKGRFTISKTSTTVDLKITSPTTEDTATYFCARDATSIGYYRYYGMDPWGPGTLVTVSS VL: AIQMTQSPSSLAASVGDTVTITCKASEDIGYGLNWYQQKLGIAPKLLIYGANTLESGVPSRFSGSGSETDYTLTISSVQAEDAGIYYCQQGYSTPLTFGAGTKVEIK
Output: 8.2

Input: Ok, now P043.A.00017.E04 (antibody, V domains shown) VH: QSVEESGGRLVTPGTPLTLTCTVSGFSLNNYAMNWVRQAPGKGLEWIGIISSSGNTYYANWAKGRFTISKTSTTVDLKITSPTTEDTATYFCARDSYPGYSPYYGMDPWGPGTLVTVSS VL: AIQMTQSPSSLAASVGDTVTITCKASEDIAYGLNWYQQKLGITPKLLIYGANTLESGVPSRFSGSGSETHYTLTISSVQAEDAGIYYCQQGYNTPPTFGAGTKVEIK
Output: 8.2

Input: Ok, now P043.A.00047.H08 (protein sample ID 447) (antibody, V domains shown, also called antibody with the Protein sample ID 447) VH: QSLEESGGDLVKPGASLTLTCTASGFSFSSDGMCWVRQAPGKGLEWIACIAAGSSGSTYYATWAQGRFTISKSSSTTVTLQMTSLTAADTATYFCAGEDYTGNNYYALWGPGTLVTVSS VL: AIDMTQTPSPVSAVVGDTVTINCQASENIYSFLAWYQQKPGQPPKLLIYFASKLASGVPSRFKGSGSGTQFTLTISDVHSDDAAIYYCQQTGTYSDADNTFGGGTEVVVK
Output: 9.6
